// provenance: ChEMBL document CHEMBL5724914

Experimental conditions: human gut metagenome, 24 h, 2 µM; also: call rule not given here
Property: Bacterial Biotransformation

Example compounds with recorded Bacterial Biotransformation:
| Compound | Bacterial Biotransformation |
| --- | --- |
| Cc1ccc(/C(=C\CN2CCCC2)c2ccccn2)cc1 | Compound NOT metabolized |
| Cc1ccc(-c2nc3ccc(C)cn3c2CC(=O)N(C)C)cc1 | Compound metabolized |
| NS(=O)(=O)c1cc2c(cc1Cl)N=C(CSCc1ccccc1)NS2(=O)=O [BENZTHIAZIDE] | Compound NOT metabolized |
| O=C(O)COCCN1CCN(C(c2ccccc2)c2ccc(Cl)cc2)CC1 (stereo not given) | Compound metabolized |

Notebook: `O=C(O)CCc1nc(-c2ccccc2)c(-c2ccccc2)o1` , Bacterial Biotransformation read as Compound metabolized
